- Test system: B16/BL6 cells
- ASSAY REMARKS: MHC class-I molecule expression promoting activity
- Type: cell-based, mouse
- CONDITION INFO: mean of a plurality of assays; 72 hours
READOUT TYPE: conc. for 2-fold expression (nM) mean

# MOLECULE, REPORTED VALUE
records = [
    ("O=C(CCCC[C@@H]1NC(=O)[C@H]2CCCN2C(=O)[C@H](Cc2ccccc2)NC(=O)[C@H](Cc2ccccc2)NC1=O)NO [HDA-18, cyclo(-Api(NHOH)-Phe-Phe-D-Pro-)]", 10900),
    ("CCC(C)[C@@H]1NC(=O)[C@@H](Cc2ccc3ccc4cccc5ccc2c3c45)NC(=O)[C@H](CCCCCC(=O)NO)NC(=O)[C@H]2CCCN2C1=O (stereo partly drawn) [HDA-48, cyclo(-L-Asu(NHOH)-D-Pya-L-Ile-D-Pro-)]", 0.846),
    ("CCC(C)[C@@H]1NC(=O)[C@@H](Cc2ccc(OC)cc2)NC(=O)[C@H](CCCCCCC(=O)NO)NC(=O)[C@H]2CCCN2C1=O (stereo partly drawn)", 155),
]

---

- Tested on: B16/BL6 cells
- ASSAY REMARKS: MHC class-I molecule expression promoting activity
- Assay type: cell-based, mouse
- CONDITION INFO: mean of a plurality of assays; 72 hours
Non-standard residues stand in square brackets, D forms with d. Residues, ends and D or L forms follow the SMILES beside them. *: point of attachment. Asu = N[C@@H](CCCCCC(=O)O)C(=O)O; NHOH = ON*
READOUT TYPE: conc. for 2-fold expression (nM) mean

# COMPOUND, REPORTED VALUE
measured = [
    ("CC(/C=C/C(=O)NO[C@@H]1O[C@H](CO)[C@@H](O)[C@H](O)[C@H]1O)=C\\[C@@H](C)C(=O)c1ccc(N(C)C)cc1 [trichostatin C, reference compound]", 6.88),
    ("CC(C)C[C@@H]1NC(=O)[C@@H](Cc2ccccc2)NC(=O)[C@H](CCCCCC(=O)NO)NC(=O)[C@@H]2CCCN2C1=O [HDA-28, cyclo(-L-Asu(NHOH)-D-Phe-L-Leu-L-Pro-)] (cyclo([Asu](NHOH)[dF]LP))", 80.2),
    ("O=C(CCCCC[C@@H]1NC(=O)[C@@H]2CCCN2C(=O)[C@H](Cc2ccccc2)NC(=O)[C@@H](Cc2ccccc2)NC1=O)NO [HDA-38, cyclo(-L-Asu(NHOH)-D-Phe-L-Phe-L-Pro-)] (cyclo([Asu](NHOH)[dF]FP))", 558),
    ("COc1ccc(C[C@H]2NC(=O)[C@H](CCCCCC(=O)NO)NC(=O)[C@H]3CCCN3C(=O)[C@H](C)NC2=O)cc1 [HDA-44] (cyclo(A[dP][Asu](NHOH)[dY](Me)))", 35.00),
    ("C[C@@H]1NC(=O)[C@@H](Cc2ccccc2)NC(=O)[C@H](CCCCCC(=O)NO)NC(=O)[C@H]2CCCN2C1=O [HDA-45, cyclo(-L-Asu(NHOH)-D-Phe-L-Ala-D-Pro-)] (cyclo(A[dP][Asu](NHOH)[dF]))", 23.1),
]

---

- System: B16/BL6 cells
- ASSAY REMARKS: MHC class-I molecule expression promoting activity
- Assay type: cell-based, mouse
- CONDITION INFO: mean of a plurality of assays; 72 hours
Non-standard residues stand in square brackets, D forms with d. Residues, ends and D or L forms follow the SMILES beside them. *: point of attachment. Asu = N[C@@H](CCCCCC(=O)O)C(=O)O; Boc = CC(C)(C)OC(=O)*; BrAc = O=C(CBr)*; NHOH = ON*

# COMPOUND, COMPARATOR, conc. for 2-fold expression (nM) mean
records = [
    ("O=C(NO)c1cccnc1 [nicotinic acid hydroxamate, reference compound]", "=", 28000),
    ("CC(=O)NC(CCCCCC(=O)NO)C(=O)NCc1ccccc1 (stereo not drawn) [Ac-Asu(NHOH)-NH-Bzl, reference compound]", "=", 2410),
    ("O=C(CBr)NCCCC[C@@H]1NC(=O)[C@H]2CCCN2C(=O)[C@H](Cc2ccccc2)NC(=O)[C@H](Cc2ccccc2)NC1=O [HDA-26, cyclo(-L-Lys(BrAc)-L-Phe-L-Phe-D-Pro-)] (cyclo(FF[dP]K(BrAc)))", "=", 5660),
    ("NC(=O)c1cccnc1 [nicotinamide, reference compound]", ">", 1000000),
    ("C[C@@H]1NC(=O)[C@H]2CCCN2C(=O)[C@H](CCCCCC(=O)NO)NC(=O)[C@@H](C)NC1=O [HDA-13, cyclo(-L-Asu(NHOH)-D-Pro-L-Ala-D-Ala-)] (cyclo(A[dA][Asu](NHOH)[dP]))", "=", 406),
    ("CC(C)(C)OC(=O)NCCCC[C@@H]1NC(=O)[C@H](CCCCCC(=O)NO)NC(=O)[C@H]2CCCN2C(=O)[C@H](Cc2ccccc2)NC1=O [HDA-32] (cyclo([Asu](NHOH)K(Boc)F[dP]))", "=", 773),
]
